# experimental-protocol: method code SF, from DOI: 10.1021/jm00002a007, PMID: 7830268
property-measured: logP
Numbers only.

Let me know recorded logP for CCOP(=O)(OCC)C1(C)CCC=[N+]1[O-] (stereo unspecified) , thanks. -1.22

* * *

# experimental-protocol: method code SF, from DOI: 10.1097/00004424-199009001-00048
# condition-summary: pH 7.4
property-measured: logD
Give bare numbers.

Please give the documented logD of O=C(NCC(O)CO)c1c(I)c(C(=O)NCC(O)CO)c(I)c(N(CCO)C(=O)CO)c1I (stereo unspecified) -2.98

* * *

# experimental-protocol: method code SF-HPLC, from DOI: 10.1002/jps.2600831027, PMID: 7884677
# condition-summary: pH 2.0
Can you tell me logD for the items I'm about to list?
Answers are plain numbers.

[[record]]
chemical_string = "O=C(O)Cc1ccc(C(=O)O)cc1"
number = 1.24


Batch: logD for all items listed.
1. O=C(O)c1ccc(CO)cc1
2. COCc1ccc(C(=O)O)cc1
3. O=C(O)c1ccc(CCl)cc1

[0.92, 1.76, 2.12]

* * *

# experimental-protocol: method code SF-AS, from DOI: 10.1002/pauz.19770060602
property-measured: logP

Dear colleague, please send me the reported logP for "O=C1CN=C(c2ccccn2)c2cc(Br)ccc2N1" when you can. 2.05

* * *

Would you mind telling me the reported logD of each entry?
# experimental-protocol: method code SF-AS, from DOI: 10.1016/0006-2952(90)90117-4, PMID: 2344368
# condition-summary: pH 7.5
Give bare numbers.

Please review the following examples before continuing.
[[record]]
molecule = "COc1cccc2c1C(=O)c1c(O)c3c(c(O)c1C2=O)CC(O)(C(C)=O)CC3OC1CC(NC(C)=O)C(O)C(C)O1 (stereo not drawn)"
number = 1.85

[[record]]
molecule = "COc1cccc2c1C(=O)c1c(O)c3c(c(O)c1C2=O)CC(O)(C(C)=O)CC3OC1CC(O)C(O)C(C)O1 (stereo not drawn)"
number = 1.34


Next molecule, please.
For "COc1cccc2c1C(=O)c1c(O)c3c(c(O)c1C2=O)C[C@@](O)(C(C)=O)C[C@@H]3O[C@@H]1C[C@@H](N(C)C)[C@@H](O)[C@@H](C)O1" , write its logD. 1.37

* * *

# experimental-protocol: method code G-HPLC, from DOI: 10.6028/nbs.ir.81-2406
property-measured: logP
Answers are plain numbers.

Take a look at these entries with their results.
[[record]]
chemical_string = "Fc1ccc(CCl)cc1"
property_measured = "logP"
number = 2.73

[[record]]
chemical_string = "Cc1c(C)c(C)c(C)c(C)c1C"
property_measured = "logP"
number = 4.61


Moving on to another compound below.
Provide one value: measured logP of "Cc1cc(C)c(O)c(C)c1" 2.73

* * *

# experimental-protocol: method code SF-HPLC, from Hairsine, P. (1997). Direct measurement of partition coefficient by shake flask technique and gradient elution HPLC. Lab. Practice, 38(11)73-75.
property-measured: logP

Write down logP measured for item "COc1ccccc1C(=O)O" 1.62

* * *

property-measured: logP
Answers are plain numbers.

Give logP for the following molecule: "Cc1cn([C@H]2O[C@@H](CO)[C@H](O)[C@H]2F)c(=O)[nH]c1=O" -0.51
